Hey, just so you know, these numbers are from ChEMBL document CHEMBL1201862.

For each record, write down the corresponding GI50.
- System: OVCAR-3
- Test method notes: NCI tumour cell line growth inhibition, 48 h
Active and inactive are the calls of the source. Cut-off read from the data, not from the text of the source: active = GI50 up to about 1.1 µM and inactive = higher.

Inquiry: Given the compound CNC(c1ccncc1)C(NC)c1ccncc1 (stereo not given) , write its reported GI50.
Reply text: > 100 µM (inactive)

Inquiry: Return GI50 for the following compound: CC(Oc1ccc(OCC2CCCCC2)cc1)C(=O)NCc1ccco1 (stereo not given)
Reply text: 40.6 µM (inactive)

Inquiry: Output measured GI50 for this item: CC(=O)OC[C@]1(C)CCCC2(C)C1CCC1C=C(C)[C@H]3CCC12C3 (stereo not given in full)
Reply text: 61.4 µM (inactive)

Inquiry: Identify measured GI50 associated with "Cc1ccccc1C(=O)NC(O)(C(F)(F)F)C(F)(F)F"
Reply text: 35.1 µM (inactive)

Inquiry: Return value of GI50 for input "CC(=O)Oc1ccc(-c2nnc(-c3ccc(OC(C)=O)cc3)nn2)cc1" , no commentary.
Reply text: > 100 µM (inactive)

Inquiry: Entry NC1CCCCC1.O=C(CP(=O)(O)O)NC(CC(=O)OCc1ccccc1)C(=O)OCc1ccccc1 (stereo not given) needs its GI50 filled in; supply it.
Reply text: > 100 µM (inactive)

Inquiry: Answer with the recorded GI50 of "Nc1nc(-c2ccccc2)nc2oc(-c3cccs3)nc12" only.
Reply text: > 100 µM (inactive)

Inquiry: Could you please provide reported GI50 for "COc1cccc(/C=C2\C(=O)N(C(=O)c3ccc(NC(C)=O)cc3)N=C2C)c1" ? Thanks!
Reply text: > 100 µM (inactive)

Inquiry: Read off the recorded GI50 for COC1(OC)CC2C(=O)N(Cc3ccccc3)C1C(S(=O)(=O)c1ccccc1)C2C(C)S(=O)(=O)c1ccccc1 (stereo not given)
Reply text: > 100 µM (inactive)

Inquiry: Look up GI50 of "CC(=O)c1ccc2c3c1[C@@H]1O[C@@H]1c1cccc(c1-3)[C@@H]1O[C@H]21" and report it.
Reply text: 13.5 µM (inactive)
